Just for reference, paper PMC4389368 is where these values come from.

# assayed-system: enoyl-ACP reductase (ENR) (Arabidopsis thaliana)
# Construct: gene MOD1
# Sequence (Q9SLA8 75-390): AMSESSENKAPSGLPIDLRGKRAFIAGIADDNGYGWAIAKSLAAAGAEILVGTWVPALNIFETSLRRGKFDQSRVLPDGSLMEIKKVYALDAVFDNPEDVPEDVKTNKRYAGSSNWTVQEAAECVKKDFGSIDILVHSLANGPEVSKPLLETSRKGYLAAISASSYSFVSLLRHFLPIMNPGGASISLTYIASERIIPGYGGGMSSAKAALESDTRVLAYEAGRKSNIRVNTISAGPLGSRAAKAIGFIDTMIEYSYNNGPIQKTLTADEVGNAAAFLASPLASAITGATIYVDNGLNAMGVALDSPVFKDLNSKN
# method-summary: NADH oxidation (A340) with purified recombinant enzyme
# Assay type: biochemical
quantity: IC50 (µM)
Give bare numbers, in µM.

(Q) Which IC50 value belongs to CCCCC/C=C/C=C/C(=O)N1CCCC1 ?
(A) 18.3
